Listed below: pKd values for each entry.
molecular target: BACE1 extracellular domain (human, UniProt P56817 46-457); experiment: indirect ELISA (plate-coated BACE1); ELISA: BACE1 coated in 1x PBS, 5% BSA block, PBST (0.01% Tween 20, pH 7.4) wash, aptamer 60 min at 37 C; SELEX binding buffer: 1x PBS, 5 mM MgCl2, 0.45% glucose, tRNA, salmon sperm DNA, BSA; FRET: kit Fluorescent Assay Buffer, 37 C, 4 h; settings: protein: commercial; predicted stem-loop
Sequence (P56817 46-457): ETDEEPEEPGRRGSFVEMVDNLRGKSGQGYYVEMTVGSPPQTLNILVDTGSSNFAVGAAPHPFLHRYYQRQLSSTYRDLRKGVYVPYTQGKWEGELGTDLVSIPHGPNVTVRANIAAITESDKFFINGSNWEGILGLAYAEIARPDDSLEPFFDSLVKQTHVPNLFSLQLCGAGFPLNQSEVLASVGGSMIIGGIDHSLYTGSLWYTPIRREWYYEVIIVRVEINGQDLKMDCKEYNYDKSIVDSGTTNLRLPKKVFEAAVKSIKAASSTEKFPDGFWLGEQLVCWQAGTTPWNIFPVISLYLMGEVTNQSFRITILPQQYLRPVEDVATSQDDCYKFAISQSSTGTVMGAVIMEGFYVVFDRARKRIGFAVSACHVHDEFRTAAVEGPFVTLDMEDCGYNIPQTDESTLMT
# pKd is unitless: minus log10 of the molar concentration; print number only

[[record]]
binder = "A1 (ssDNA) DNA: GCAATGGTACGGTACTTCCGTCATCAGCTTGTGATGTGGATGCGAACTGCAAAAGTGCACGCTACTTTGCTAA"
recorded_number = 7.16


Turning to the following binder.
Which pKd value is on record for A4 (ssDNA) DNA: GCAATGGTACGGTACTTCCTGTGTTATTGTTATGTTTTTTCAGTGTAGTCAAAAGTGCACGCTACTTTGCTAA ?
7.81
